Test system: HIV-1 variant L100I
Test: Cytopathic cell killing assay, cross-resistance profile, infected MT-4 cells
Type: cell-based
Conditions: Table 10 (values in µM); isolate L1001; read-out: EC50
readout name: EC50

The compound listed as `CN(C)c1cccc2c1nc(-c1c(F)cccc1F)n2Cc1c(F)cccc1F` has a reported EC50 of 31.8 µM

###

Tested on: HIV-1 variant V106A
Test: Cytopathic cell killing assay, cross-resistance profile, infected MT-4 cells
Assay type: cell-based
Conditions: Human immunodeficiency virus 1, MT4, Table 8; isolate V 106A
readout name: pEC50
The value called pEC50 is obtained by taking minus log10 of the concentration in mol/L.

CC(=O)N(C)c1cccc2c1nc(-c1c(F)cccc1F)n2Cc1c(F)cccc1F [compound 57] :: 7.30
Fc1cccc(F)c1C1SCc2nc3ccccc3n21 (stereo not shown) [TZB, reference compound] :: 5.24

Short answer on HIV-1 variant V106A for COc1cccc2c1nc(-c1c(F)cccc1F)n2Cc1c(F)cccc1F [compound 44] , pEC50: 5.85

###

Test system: HIV-1 variant Y188C
Test: Cytopathic cell killing assay, cross-resistance profile, infected MT-4 cells
Assay type: cell-based
Settings: Human immunodeficiency virus 1, MT4, Table 8; isolate Y 188C
pEC50 for assorted compounds
The value called pEC50 is obtained by taking minus log10 of the concentration in mol/L.

Previously resolved entries follow.
CC(=O)N(C)c1cccc2c1nc(-c1c(F)cccc1F)n2Cc1c(F)cccc1F :: 6.30
Cc1cccc2c1nc(-c1c(F)cccc1F)n2Cc1c(F)cccc1F :: 5.52
Fc1cccc(F)c1Cn1c(-c2c(F)cccc2F)nc2c(Cl)cccc21 :: 5.27

Now for the compound whose pEC50 we want.
Short answer on HIV-1 variant Y188C for `COc1cccc2c1nc(-c1c(F)cccc1F)n2Cc1c(F)cccc1F` , pEC50: 6.52

###

EC50 for assorted compounds
Tested on: HIV-1 variant L74V
Experiment: Cytopathic cell killing assay, cross-resistance profile, infected MT-4 cells
Type: cell-based
Conditions: Human immunodeficiency virus 1, MT4, Table 4; isolate L74V
Enter your answer as a number in nM; do not include the unit.

CC1Cn2c(=O)[nH]c3cccc(c32)CN1 (stereo not shown) [TIBO, reference compound] :: 200

The compound listed as Fc1cccc(F)c1C1SCc2nc3ccccc3n21 (stereo not shown) [TZB, reference compound] has a reported EC50 of 700

The compound listed as `Fc1cccc(F)c1Cn1c(-c2c(F)cccc2F)nc2ccccc21` has a reported EC50 of 460

The compound listed as `Cc1cccc2c1nc(-c1c(F)cccc1F)n2Cc1c(F)cccc1F` has a reported EC50 of 100

###

Test system: HIV-1 variant L74V
Test: Cytopathic cell killing assay, cross-resistance profile, infected MT-4 cells
Format: cell-based
Conditions: Human immunodeficiency virus 1, MT4, Table 8; isolate 1.74V
Experimental: The various HIV isolates tested in the Figures are those corresponding to wild-type virus (NL4-3) and the other strains listed by their RT mutations. The three 4xAZT isolates included in the Figures represent AZT drug-resistant variants. […] After six days of incubation at 37°C, cell viability was determined spectrophotometrically at 450 nm for each well, using the metabolic reduction of XTT to a soluble colored formazan. […]
readout name: pEC50
The value called pEC50 is obtained by taking minus log10 of the concentration in mol/L.

Previously resolved entries follow.
CC(=O)N(C)c1cccc2c1nc(-c1c(F)cccc1F)n2Cc1c(F)cccc1F [compound 57] :: 7.15
CNc1cccc2c1nc(-c1c(F)cccc1F)n2Cc1c(F)cccc1F [compound 58] :: 5.41
Cc1ccnc2c1NC(=O)c1cccnc1N2C1CC1 [nevirapine, reference compound] :: 7.40
Fc1cccc(F)c1Cn1c(-c2c(F)cccc2F)nc2c(Cl)cccc21 [compound 55] :: 6.30
Cc1cccc2c1nc(-c1c(F)cccc1F)n2Cc1c(F)cccc1F [compound 33] :: 6.52

The compound listed as COc1cccc2c1nc(-c1c(F)cccc1F)n2Cc1c(F)cccc1F [compound 44] has a reported pEC50 of 7.10

The compound listed as Fc1cccc(F)c1C1SCc2nc3ccccc3n21 (stereo not shown) [TZB, reference compound] has a reported pEC50 of 6.10

Where these numbers come from: patent EP1210336B1
